Origin of measurements: patent US20240247042A1

- experimental system: human GLP1R (hGLP1R) with a Prolink tag, on CHO-hGLP1R-β-arrestin cells (human, UniProt P43220 24-463)
- method notes: cell-based or functional assay
observed property: β-arrestin recruitment (PathHunter): EC50 mean (nM)

binder="HXEGTFTSDVSSYLEGQAAKEFIAWLVRGRG (Aib at position 8 (GLP-1 numbering); side-chain NH of the Lys residue acylated, via a PEG24 linker, with the 15-carbamoyl-nonacosane-1,15,29-tricarboxylic acid moiety (from NHS ester Intermediate 50)) [Compound 9]" bound_sign=> experimental_value=2000
binder="HXEGTFTSDVSSYLEGQAAKEFIAWLVRGRG (Aib at position 8 (GLP-1 numbering); side-chain NH of the Lys residue acylated, via a PEG8 linker, with 2-undecyltridecanedioic acid (from NHS ester Intermediate 19)) [Compound 4]" bound_sign== experimental_value=235
binder="HXEGTFTSDVSSYLEGQAAKEFIAWLVRGRG (Aib at position 8 (GLP-1 numbering); side-chain NH of the Lys residue acylated, via a PEG24 linker, with 2-undecyltridecanedioic acid (from NHS ester Intermediate 6); diastereomeric mixture at the quaternary carbon of the fatty acid) [Compound 1 (Diastereomeric Mixture)]" bound_sign== experimental_value=192
binder="HXEGTFTSDVSSYLEGQAAKEFIAWLVRGRG (Aib at position 8 (GLP-1 numbering); side-chain NH of the Lys residue acylated, via a PEG24 linker, with the 12-carbamoyl-tricosane-1,12,23-tricarboxylic acid moiety (from NHS ester Intermediate 36)) [Compound 7]" bound_sign== experimental_value=178
binder="HXEGTFTSDVSSYLEGQAAKEFIAWLVRGRG (Aib at position 8 (GLP-1 numbering); side-chain NH of the Lys residue acylated, via a PEG24 linker, with (S)-2-undecyltridecanedioic acid (from NHS ester Intermediate 15A, S-enantiomer)) [Compound 2: Diastereomer 1]" bound_sign== experimental_value=133
